// provenance: patent US20250250357A1

Target: T1, monkey MSLN on HEK293T-monkey MSLN recombinant cells (monkey)
T1 construct: Full-length precursor as transfected; processing on the cell is not described; also called HEK293-monkey MSLN
T1 chain: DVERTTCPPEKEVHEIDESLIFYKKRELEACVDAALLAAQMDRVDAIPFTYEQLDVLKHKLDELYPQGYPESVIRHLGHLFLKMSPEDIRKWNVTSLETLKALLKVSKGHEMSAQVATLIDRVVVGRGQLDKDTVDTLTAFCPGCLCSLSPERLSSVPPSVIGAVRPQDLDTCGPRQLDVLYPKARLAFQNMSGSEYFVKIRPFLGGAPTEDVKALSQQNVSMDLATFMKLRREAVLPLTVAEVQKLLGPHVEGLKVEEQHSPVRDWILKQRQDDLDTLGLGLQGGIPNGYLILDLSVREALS
Experiment: FACS, HEK293T-monkey MSLN cells
Form field: pEC50 (one value per entry).
Note on pEC50: it is the negative log10 of concentration, concentration in mol/L.

Example results:
F7.33.24-H7 (scFv, not shown: small tags and cut ends, also called S009-F7.33.24 humanized antibody VH2 + VL1) scFv: EVQLVQSGAEVKKPGASVKVSCKASGYTFTSYWMHWVRQAPGQGLEWMGNVNPSNGGSNYNEKFKNRVTITVDKSASTAYMELSSLRSEDTAVYYCAPHYIGSRPGFAYWGQGTLVTVSSGGGGSGGGGSGGGGSDIVMTQSPDSLAVSLGERATINCKASQNVGTNIAWYQQKPGQSPKALIYSASYRYSGVPDRFSGSGSGTDFTLTISSLQAEDVAVYYCQQYNSYPLTFGGGTKVEIK; 8.30
F7.33.24-H9 (scFv, not shown: small tags and cut ends, also called S009-F7.33.24 humanized antibody VH2 + VL3) scFv: EVQLVQSGAEVKKPGASVKVSCKASGYTFTSYWMHWVRQAPGQGLEWMGNVNPSNGGSNYNEKFKNRVTITVDKSASTAYMELSSLRSEDTAVYYCAPHYIGSRPGFAYWGQGTLVTVSSGGGGSGGGGSGGGGSDIVMTQTPLSLSVTPGQPASISCKASQNVGTNIAWYQQKPGQSPQALIYSASYRYSGVPDRFSGSGSGTDFTLKISRVEAEDVGVYYCQQYNSYPLTFGGGTKVEIK; 8.39

IN: Can you look up the measured pEC50 of F7.33.24 (scFv) QVQLQQPGTELVKPGASVKLSCKASGYTFTSYWMHWVKQRPGQGLEWIGNVNPSNGGSNYNEKFKNKATLTVDKSSSTADMQLNSLTSEDSAVYYCAPHYIGSRPGFAYWGQGTLVTVSGGGGGSGGGGSGGGGSDIVMTQSQKFMSTSVGDRVSVTCKASQNVGTNIAWYQQKPGQSPKALIYSASYRYSGVPDRFTGSGSGTDFTLTITNVQSEDLAEYFCQQYNSYPLTFGGGTKVEIK for me?
OUT: 8.10
